From: paper PMC9736779

target: nucleolin (NCL) (Homo sapiens, UniProt P19338 1-710); experiment: SPR; 70 mM KCl; SPR (Biacore X-100, CM5): 10 mM HEPES, 70 mM KCl, pH 7.4, 25 C; analyte 5-500 uM; two-state reaction fit; conditions: protein: commercial; G4, one extra G-tetrad, intramolecular
Sequence (P19338 whole entry): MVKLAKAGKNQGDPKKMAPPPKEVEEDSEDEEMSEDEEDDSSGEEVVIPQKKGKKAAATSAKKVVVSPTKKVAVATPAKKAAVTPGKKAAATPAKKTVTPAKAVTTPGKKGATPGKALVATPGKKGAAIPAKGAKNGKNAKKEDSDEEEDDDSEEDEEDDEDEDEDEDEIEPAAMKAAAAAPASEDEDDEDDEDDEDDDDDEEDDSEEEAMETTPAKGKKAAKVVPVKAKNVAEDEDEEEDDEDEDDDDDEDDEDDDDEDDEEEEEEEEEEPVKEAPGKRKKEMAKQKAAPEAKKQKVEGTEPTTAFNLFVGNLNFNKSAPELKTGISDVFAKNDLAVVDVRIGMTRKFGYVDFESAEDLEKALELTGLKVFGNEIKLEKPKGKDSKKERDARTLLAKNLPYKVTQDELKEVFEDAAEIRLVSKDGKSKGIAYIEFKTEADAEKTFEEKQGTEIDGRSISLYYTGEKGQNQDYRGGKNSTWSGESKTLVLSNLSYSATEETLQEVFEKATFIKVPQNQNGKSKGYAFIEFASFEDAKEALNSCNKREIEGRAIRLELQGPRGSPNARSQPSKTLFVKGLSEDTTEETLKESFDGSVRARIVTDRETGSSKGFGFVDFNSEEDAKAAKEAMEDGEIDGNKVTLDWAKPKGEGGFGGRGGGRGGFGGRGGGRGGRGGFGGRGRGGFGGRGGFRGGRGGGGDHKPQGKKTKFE
measured attribute: Kd
Kindly write the number and append the unit.

Lookup: # lookup: Kd of GGGTTGGGTGTGGGTTGGG (structured_DNA) [TBAG3]
Found: 1290 µM
